system: OVCAR-5 ovarian; assay: NCI-60 one-dose screen, 48 h; conditions: 10 µM unless noted
The panel holds about 83,000 compounds, 20% with a hit somewhere; the sample as a whole holds those more often. The source made the active and inactive calls. Rule for the calls: active = growth percent below 10; inactive = the rest.
Returns: one label drawn from active, inactive

Before answering, review these 2 worked examples.
[
  {
    "molecule": "O=[N+]([O-])c1cc(F)c2cccnc2c1O",
    "cat": "inactive"
  },
  {
    "molecule": "CC1=C(O)C(=O)C(c2c(C)cc(C)c(Br)c2C)=C(O)C1=O",
    "cat": "inactive"
  }
]

Inquiry: Field: outcome | Entry: `Cc1ccc(NC(=O)c2[nH]c(SCCN(C)C)nc2-c2ccc(F)cc2)cc1Nc1ccc2ncn(C)c(=O)c2c1`
Reply text: inactive

====

test system: SF-268 CNS; assay: NCI-60 one-dose screen, 48 h (100 = growth as untreated, 0 = no growth, -100 = all killed); settings: 10 µM unless noted
Compounds without any hit were thinned out: in the full panel of roughly 83,000, 20% have a hit. Activity calls are given as the source filed them. Rule for the calls: active = growth percent below 10; inactive = the rest.
valueKind: growth

[
  {
    "molecule": "O=[N+]([O-])c1cc(F)c2cccnc2c1O",
    "measuredTarget": "SF-268 CNS",
    "reportedValue": "106% (inactive)"
  },
  {
    "molecule": "CCc1ccc2c(c1)N(CCO)C1=C(C(=O)OC1)C2c1cccc(Br)c1 (stereo not given)",
    "measuredTarget": "SF-268 CNS",
    "reportedValue": "47.2% (inactive)"
  },
  {
    "molecule": "O=c1[nH]c2ccccc2n2cc3cccnc3c12",
    "measuredTarget": "SF-268 CNS",
    "reportedValue": "79.3% (inactive)"
  },
  {
    "molecule": "C#CC[C@@H]1C[C@]2(C)[C@H]3CC[C@@H]4[C@H]5C(C(=C)C)CC[C@]5(C(=O)NCCN(CCN)CCN)CC[C@@]4(C)[C@]3(C)CC[C@H]2C(C)(C)[C@H]1OC(C)=O (stereo not given in full)",
    "measuredTarget": "SF-268 CNS",
    "reportedValue": "87.6% (inactive)"
  }
]

# context switch: different molecule, same growth
Inquiry: State the recorded growth for this entry: `Cc1nc2ccc(Nc3nc(Cl)nc(N4CCOCC4)n3)cc2n1Cc1ccccc1`
Reply text: 77% (inactive)

====

system: RXF 393 renal; assay: NCI-60 one-dose screen, 48 h (100 = growth as untreated, 0 = no growth, -100 = all killed); conditions: 10 µM unless noted
This is part of a sample that, as a whole, favours compounds with a hit. Of some 83,000 tested, about 20% had one in any assay.
Decide by growth: equal to or exceeding 20% means Criterion met, less means Criterion not met.

Some solved entries appear below for comparison.
[
  {
    "molecule": "C1=C\\CCCCN2CC[C@H]3[C@H](CCCC/C=C\\CCCN4C[C@@H](CCCCC/1)C[C@@H]3C4)C2",
    "measuredTarget": "RXF 393 renal",
    "cat": "Criterion not met"
  },
  {
    "molecule": "CCOC(CN1CCN(CC(C)C(=O)c2ccccc2)CC1)c1ccccc1 (centres undefined)",
    "measuredTarget": "RXF 393 renal",
    "cat": "Criterion met"
  },
  {
    "molecule": "C#CCNC(=S)N/N=C(\\C)c1ccccn1",
    "measuredTarget": "RXF 393 renal",
    "cat": "Criterion not met"
  },
  {
    "molecule": "CC(=O)c1cccc(Nc2ncnc3ccc(NC(=O)c4ccco4)cc23)c1",
    "measuredTarget": "RXF 393 renal",
    "cat": "Criterion met"
  },
  {
    "molecule": "CCN(CC)CCCC(C)Nc1cnc(C(=O)Nc2cc(C)cc3cccnc23)cn1 (centres undefined)",
    "measuredTarget": "RXF 393 renal",
    "cat": "Criterion met"
  }
]

// switching to the query molecule
Inquiry: Determine whether this molecule has growth no lower than 20%: `O=c1[nH]c2cc(Cl)c(Cl)cc2o1`
Reply text: Criterion met
